Measured values drawn from paper PMC11855827 for this set.

# System: C. elegans
# experimental.conditions: Table S2, C. elegans SS assay, 110 μM, 0 h, averages of 4 data points
Classify by Percentage of motility inhibition 0 h. Ranges: lower level (below 5%), middle level (5% to below 20%), upper level (20% or more)

molecule | group.label
COc1cc(NC(C)CCCN)c2ncccc2c1.O=P(O)(O)O.O=P(O)(O)O (stereo not shown) [Primaquine (Diphosphate)] | upper level
CC(=O)O[C@@H]1CC[C@]2(C)C3=C(CC[C@H]2C1(C)C)[C@]1(C)CC[C@H]([C@@H](CCC=C(C)C)C(=O)O)[C@@]1(C)CC3 | middle level
C=C(C)[C@@H]1CC=C(CO)CC1 [(S)-(−)-Perillyl alcohol] | upper level
C=C[C@H]1[C@H](O[C@@H]2O[C@H](CO)[C@@H](O)[C@H](O)[C@H]2O)OC=C(C(=O)OC)[C@H]1CC(=O)O | lower level
Nc1nc(NC2CC2)c2ncn([C@H]3C=C[C@@H](CO)C3)c2n1.Nc1nc(NC2CC2)c2ncn([C@H]3C=C[C@@H](CO)C3)c2n1.O=S(=O)(O)O [Abacavir (sulfate)] | upper level
O=c1c(O)c(-c2ccc(O)cc2)oc2cc(O)ccc12 [3,7,4'‐Trihydroxyflavone] | lower level
O=c1c2c3c(ccc2cc2n1CCc1cc4c(cc1-2)OCO4)OCO3 | lower level
CC1=C[C@H]2[C@@H](CC1)[C@H](C)CC[C@H]2[C@@H](C)C(=O)O [Dihydroartemisinic acid] | lower level
COc1cc(/C=C/C(=O)O[C@H]2[C@H](O)[C@@H](CO)O[C@@]2(CO)O[C@H]2O[C@H](COC(=O)c3ccc(O)cc3)[C@@H](O)[C@H](O)[C@H]2O)cc(OC)c1OC [Tenuifoliside A] | lower level
NC[C@H]1O[C@H](O[C@H]2[C@H](O[C@@H]3O[C@H](CO)[C@@H](O)[C@H]3O)[C@@H](O)[C@H](N)C[C@@H]2N)[C@H](N)[C@@H](O)[C@@H]1O.O=S(=O)(O)O [Ribostamycin (sulfate)] | upper level
CC(=O)OC[C@H]1O[C@@H](OC[C@H]2O[C@@H](OC(=O)[C@]34CCC(C)(C)C[C@H]3C3=CC[C@@H]5[C@@]6(C)CC[C@H](O[C@@H]7OC[C@H](O)[C@H](O)[C@H]7O[C@@H]7O[C@H](CO)[C@@H](O)[C@H](O)[C@H]7O)C(C)(C)[C@@H]6CC[C@@]5(C)[C@]3(C)CC4)[C@H](O)[C@@H](O)[C@@H]2O)[C@H](O)[C@@H](O)[C@@H]1O[C@@H]1O[C@@H](C)[C@H](O)[C@@H](O)[C@H]1O [Acanthopanaxoside B] | lower level
O=C1C=C2C=C[C@@H]3C[C@@]2(O1)[C@@H]1CCCCN31 | upper level
CCN1C[C@]2(COC)CC[C@H](OC)C34C1C([C@H](OC)[C@@H]32)[C@]1(OC(C)=O)[C@@H]2[C@H]4C[C@@](O)([C@@H]2OC(=O)c2ccccc2)[C@@H](OC)[C@@H]1O | middle level
NC(=O)c1cc[n+](CC2=C(C(=O)[O-])N3C(=O)[C@@H](NC(=O)[C@@H](c4ccccc4)S(=O)(=O)[O-])[C@H]3SC2)cc1.[Na+] [Cefsulodin (sodium)] | middle level
C/C1=C/CC[C@H](C)C(=O)C[C@@H](C(C)C)C(=O)C1 | middle level
O=C(O)c1cc(=O)c2ccccc2[nH]1 | middle level
CC1(C)CCC[C@]2(C)[C@H]3CCO[C@]3(C)CC[C@@H]12 [Ambroxide] | middle level
COC(=O)C1=CC[C@@]23CC[C@@H]([C@@](C)(/C=C/C=C(\C)C(=O)O[C@@H]4O[C@H](CO)[C@@H](O)[C@H](O)[C@H]4O)OC2=O)[C@@]3(OC(C)=O)CC1 [Pseudolaric acid B β-D-glucoside] | lower level
CCCCCCCCCCCCC(=O)NNC(=O)c1c(O)c2ccccc2n(CC)c1=O | upper level

====

# System: C. elegans
# experimental.conditions: Table S2, C. elegans SS assay, 110 μM, 0 h, averages of 4 data points
Recorded Percentage of motility inhibition 0 h, one value per entry.
observation.type: Percentage of motility inhibition 0 h (%)

compound | tested.system | assay.result
C1CNCCN1.O=C(O)CC(O)C(=O)O (stereo not shown) [Piperazine (malate)] | C. elegans | 26
C=C(CC[C@@H](C(=O)O)[C@H]1[C@H](O)C[C@@]2(C)C3=CC[C@H]4C(C)(C)C(=O)CC[C@]4(C)C3=CC[C@]12C)C(C)C | C. elegans | 30
COc1cc(-c2cc(=O)c3c(O)c(OC)c(O)cc3o2)ccc1O | C. elegans | 0
CC(C)(O)[C@@H]1CC[C@](C)([C@H]2[C@@H](O)C[C@@]3(C)[C@@H]4C[C@H](O)[C@H]5C(C)(C)[C@@H](O)CC[C@]5(C)C4=CC[C@]23C)O1 | C. elegans | 50
COc1c(O[C@@H]2O[C@H](CO)[C@@H](O)[C@H](O)[C@H]2O)cc2oc(-c3ccc(O)cc3)cc(=O)c2c1O | C. elegans | 19
C[C@@H]1O[C@@H](O[C@@H]2[C@@H](O)[C@H](O[C@H]3CC[C@]4(C)[C@H]5CC=C6[C@@H]7CC(C)(C)CC[C@]7(C(=O)O[C@@H]7O[C@H](CO)[C@@H](O)[C@H](O)[C@H]7O)CC[C@@]6(C)[C@]5(C)CC[C@H]4C3(C)C)O[C@H](C(=O)O)[C@H]2O)[C@H](O)[C@H](O)[C@H]1O | C. elegans | 6
O=C(O[C@H]1Cc2c(O)cc(O)cc2O[C@@H]1c1ccc(O)c(O)c1)c1cc(O)c(O)c(O)c1 [(‐)‐Catechin gallate] | C. elegans | 3
COc1ccc(C2COc3cc(O)ccc3C2)c(O)c1OC (stereo not shown) | C. elegans | 7
Cl.Cl.O=C(C[C@H]1NCCC[C@@H]1O)Cn1cnc2ccccc2c1=O [Febrifugine (dihydrochloride)] | C. elegans | 30
C[C@H]1[C@H](OC(=O)CCC(=O)O)O[C@@H]2O[C@@]3(C)CC[C@H]4[C@H](C)CC[C@@H]1[C@@]24OO3 [Artesunate] | C. elegans | 21
CC1=CC(=O)[C@@H](O)[C@]2(C)[C@H]3[C@@H](O)[C@H](O)[C@@]4(C)OC[C@@]35[C@@H](C[C@@H]12)OC(=O)[C@H](O)[C@]54O | C. elegans | 25
CN1CCCN=C1/C=C/c1cccs1.O=C(O)C(O)C(O)C(=O)O [Pyrantel tartrate, reference compound] | C. elegans | 85
Clc1ccc(C(Cn2ccnc2)OCc2ccc(Sc3ccccc3)cc2)c(Cl)c1.O=[N+]([O-])O (stereo not shown) [Fenticonazole (Nitrate)] | C. elegans | 45

====

# Test system: C. elegans
# experimental.conditions: Table S2, C. elegans SS assay, 110 μM, 0 h, averages of 4 data points
Reported Percentage of motility inhibition 0 h values are given for each entry in this list.

molecule | Percentage of motility inhibition 0 h / %
C=C[C@]1(C)C[C@@H](OC(=O)CSC(C)(C)CNC(=O)[C@H](N)C(C)C)[C@]2(C)[C@H](C)CC[C@]3(CCC(=O)[C@H]32)[C@@H](C)[C@@H]1O.Cl [Valnemulin (Hydrochloride)] | 29
CC(=O)C1CCC2C3CC=C4CC(OS(=O)(=O)O)CCC4(C)C3CCC12C (centres unmarked) [Pregnenolone monosulfate] | 0
C=C1[C@H]2C[C@H]2[C@]2(C)Cc3occ(C)c3[C@H](OC(C)=O)[C@@H]12 [Linderene acetate] | 8
C/C1=C\C(=O)c2c(C)coc2C/C(C)=C/CC1 | 0
CC(/C=C/C=C(\C)C(=O)[O-])=C\C=C\C=C(C)\C=C\C=C(/C)C(=O)[O-].[Na+].[Na+] [Crocetin (disodium)] | 0
Clc1ccc(CCC(Cn2ccnc2)Sc2c(Cl)cccc2Cl)cc1.O=[N+]([O-])O (centres unmarked) [Butoconazole (nitrate)] | 45
CO/N=C(\C(=O)N[C@@H]1C(=O)N2C(C(=O)[O-])=C(COC(C)=O)CS[C@H]12)c1csc(N)n1.[Na+] [Cefotaxime (sodium salt)] | 30
COc1cc(/C=C/C(=O)O[C@@H]2[C@H](O[C@@H]3O[C@@H](C)[C@H](O)[C@@H](O)[C@H]3O)[C@@H](O[C@@H]3O[C@@H](C)[C@H](O[C@@H]4OC[C@@H](O)[C@H](O)[C@H]4O)[C@@H](O)[C@H]3O)[C@H](OC(=O)[C@]34CCC(C)(C)C[C@H]3C3=CC[C@@H]5[C@@]6(C)C[C@H](O)[C@H](O[C@@H]7O[C@H](CO)[C@@H](O)[C@H](O)[C@H]7O)[C@@](C)(C(=O)O)[C@@H]6CC[C@@]5(C)[C@]3(CO)CC4)O[C@@H]2C)cc(OC)c1OC | 4
COc1cc(-c2coc3cc(O[C@@H]4O[C@H](CO)[C@@H](O)[C@H](O)[C@H]4O)c(OC)c(O)c3c2=O)ccc1O | 5
Nc1nc(/C(=C/CC(=O)O)C(=O)N[C@@H]2C(=O)N3C(C(=O)O)=CCS[C@H]23)cs1.O.O [Ceftibuten (dihydrate)] | 19
COC(=O)C1=CO[C@@H](C)[C@H]2CN3CCc4c([nH]c5ccccc45)[C@@H]3C[C@H]12 | 0
